// UniProtKB Q9UBN7 IC50 records

In: Could you tell me which IC50 is on file for FC(F)c1nnc(-c2cnc(COc3cccnc3)nc2)o1 ?
Out: 1 to 100 nM

In: Could you tell me which IC50 is on file for Fc1cc(-c2nnc(C(F)F)o2)cnc1COc1ccc2cncnc2c1 ?
Out: 1 to 100 nM

In: Could you tell me which IC50 is on file for Fc1cc(-c2nnc(C(F)F)o2)cnc1COc1cccn2ccnc12 ?
Out: 1 to 100 nM

In: Could you tell me which IC50 is on file for FC(F)c1nnc(-c2ccc(COc3cnccn3)nc2)o1 ?
Out: 100 to 1000 nM

In: Could you tell me which IC50 is on file for CCn1cnc2ccc(OCc3ccc(-c4nnc(C(F)F)o4)cn3)cc21 ?
Out: 100 to 1000 nM

====

pIC50: −log10 of the molar value.
// Human HDAC6 (Homo sapiens (Human)) pIC50 records

Some solved cases for reference:
Molecule: FC(F)c1nnc(-c2ccc(COc3cccnn3)nc2)o1
Target under test: Human HDAC6 (Homo sapiens (Human))
Sequence (Q9UBN7 whole entry): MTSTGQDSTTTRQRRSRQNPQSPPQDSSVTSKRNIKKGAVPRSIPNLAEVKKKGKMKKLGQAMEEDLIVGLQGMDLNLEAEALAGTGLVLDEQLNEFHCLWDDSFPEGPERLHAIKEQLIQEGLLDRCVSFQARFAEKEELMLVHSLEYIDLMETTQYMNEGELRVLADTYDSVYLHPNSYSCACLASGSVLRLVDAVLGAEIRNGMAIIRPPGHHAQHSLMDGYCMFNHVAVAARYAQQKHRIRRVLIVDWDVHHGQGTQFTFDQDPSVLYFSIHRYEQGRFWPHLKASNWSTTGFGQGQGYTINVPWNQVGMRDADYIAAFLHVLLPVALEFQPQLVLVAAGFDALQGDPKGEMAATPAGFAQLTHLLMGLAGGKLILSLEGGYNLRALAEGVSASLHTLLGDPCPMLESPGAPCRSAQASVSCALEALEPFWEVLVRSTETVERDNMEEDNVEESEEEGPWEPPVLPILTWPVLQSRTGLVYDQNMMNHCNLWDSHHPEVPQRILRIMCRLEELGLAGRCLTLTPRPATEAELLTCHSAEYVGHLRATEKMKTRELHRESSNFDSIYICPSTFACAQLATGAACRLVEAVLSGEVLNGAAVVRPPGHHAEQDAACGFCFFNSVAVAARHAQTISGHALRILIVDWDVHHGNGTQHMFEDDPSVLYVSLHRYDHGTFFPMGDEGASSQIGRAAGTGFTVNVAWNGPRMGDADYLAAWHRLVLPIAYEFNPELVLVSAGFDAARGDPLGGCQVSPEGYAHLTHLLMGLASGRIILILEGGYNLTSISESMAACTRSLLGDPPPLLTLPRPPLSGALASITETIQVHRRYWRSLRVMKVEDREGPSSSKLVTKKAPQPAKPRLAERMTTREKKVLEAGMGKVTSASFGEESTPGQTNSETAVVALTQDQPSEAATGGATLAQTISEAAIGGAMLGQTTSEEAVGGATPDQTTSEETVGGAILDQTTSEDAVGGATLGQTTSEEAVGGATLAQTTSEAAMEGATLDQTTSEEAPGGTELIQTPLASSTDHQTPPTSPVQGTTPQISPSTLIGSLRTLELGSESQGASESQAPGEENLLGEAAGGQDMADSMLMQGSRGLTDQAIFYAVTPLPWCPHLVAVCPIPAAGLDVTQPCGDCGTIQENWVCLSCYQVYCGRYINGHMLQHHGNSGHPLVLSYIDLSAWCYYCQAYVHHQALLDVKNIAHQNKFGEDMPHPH
pIC50: 6.00 to 7.00
--
Molecule: Cc1ccc(OCc2ccc(-c3nnc(C(F)F)o3)cn2)cn1
Target under test: Human HDAC6 (Homo sapiens (Human))
pIC50: 6.00 to 7.00
--
Molecule: FC(F)c1nnc(-c2ccc(COc3ccnc(-c4ccccc4)c3)nc2)o1
Target under test: Human HDAC6 (Homo sapiens (Human))
pIC50: 7.00 to 9.00
--
Molecule: Fc1ccc(OCc2ncc(-c3nnc(C(F)F)o3)cc2F)c(F)c1
Target under test: Human HDAC6 (Homo sapiens (Human))
pIC50: 7.00 to 9.00
--
Molecule: FC(F)c1nnc(-c2ccc(COc3ccncn3)nc2)o1
Target under test: Human HDAC6 (Homo sapiens (Human))
pIC50: 7.00 to 9.00
--
Molecule: Fc1cncnc1OCc1ccc(-c2nnc(C(F)F)o2)cn1
Target under test: Human HDAC6 (Homo sapiens (Human))
pIC50: 7.00 to 9.00
--
Molecule: Cn1c(-c2ccc(OCc3ccc(-c4nnc(C(F)F)o4)cn3)cc2)nc2ccccc21
Target under test: Human HDAC6 (Homo sapiens (Human))
pIC50: 7.00 to 9.00
--
Molecule: Cc1nc2cc(OCc3ccc(-c4nnc(C(F)F)o4)cn3)ccc2o1
Target under test: Human HDAC6 (Homo sapiens (Human))
pIC50: 7.00 to 9.00

Okay, now this molecule:
In: Could you tell me which pIC50 is on file for N#Cc1cccc(OCc2ncc(-c3nnc(C(F)F)o3)cc2F)c1 ?
Out: 7.00 to 9.00

====

pIC50: −log10 of the molar value.
// UniProt Q9UBN7 pIC50 records

In: Provide the documented pIC50 with UniProt Q9UBN7 as the system for CC(C)n1cnc2ccc(OCc3ccc(-c4nnc(C(F)F)o4)cn3)cc21 [Compound 203]
Out: 5.00 to 6.00

In: Provide the documented pIC50 with UniProt Q9UBN7 as the system for Fc1ccc(Cl)c(OCc2ccc(-c3nnc(C(F)F)o3)cn2)c1 [Compound 7]
Out: 7.00 to 9.00

In: Provide the documented pIC50 with UniProt Q9UBN7 as the system for Cc1nc2cc(OCc3ncc(-c4nnc(C(F)F)o4)cn3)ccc2o1 [Compound 140]
Out: 7.00 to 9.00

In: Provide the documented pIC50 with UniProt Q9UBN7 as the system for FC(F)c1nnc(-c2ccc(C(F)(F)Oc3cccc4cccnc34)nc2)o1 [Compound 13]
Out: 7.00 to 9.00

In: Provide the documented pIC50 with UniProt Q9UBN7 as the system for N#Cc1cccc(OCc2ccc(-c3nnc(C(F)F)o3)cn2)c1 [Compound 26]
Out: 7.00 to 9.00
